These measurements were taken from patent US20220033483A1.

Items are presented alongside their recorded OD 450 nm.
target: T1, cTnI quality control product recombinant protein (human, UniProt P19429 1-210, limits assumed); assay: capture ELISA, antibody 37.037 ng/ml, cTnI 0.15 ug/ml
T1 construct: the assay paragraphs only say cTnI; also called cardiac troponin I; cTnI antigen
T1 sequence (P19429 whole entry): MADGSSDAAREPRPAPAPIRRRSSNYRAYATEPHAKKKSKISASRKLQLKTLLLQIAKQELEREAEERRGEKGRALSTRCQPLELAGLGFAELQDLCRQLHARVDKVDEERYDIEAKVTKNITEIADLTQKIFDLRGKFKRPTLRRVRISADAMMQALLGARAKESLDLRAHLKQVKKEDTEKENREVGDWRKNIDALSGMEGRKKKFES
Number only, in OD; omit the unit.

Challenge: Return value of OD 450 nm for input Mutation 2 (antibody, V domains shown, other CDR sites as WT) VH: QVQLQQSGTELAKPGASVKFSCKASLYTFSTYWMYWIKQRPGQGLEWIGYLNPSSGHTEYNQRFKDKATLTADKSSSTAYMQLNSLTSEDSAVYYCARKYFGPFIMDYWGQGTSVTVSS VL: EIFLTQSPAIMSASPGEKVTMTCSASTTVSYAHWYQQKSGTSPKRWLYDTSKIASGIPVRFSGSGSGTSYSLTISSMEAEDAATYYCQVWSTQPYTFGGGTKLEIKR , no commentary.
Response given: 2.13

Challenge: Input Mutation 3 (antibody, V domains shown, other CDR sites as WT) VH: QVQLQQSGTELAKPGASVKFSCKASIYTFSTYWMYWIKQRPGQGLEWIGYLNPSSGHTGYNQRFKDKATLTADKSSSTAYMQLNSLTSEDSAVYYCARKYFGPFVMDYWGQGTSVTVSS VL: EIFLTQSPAIMSASPGEKVTMTCSASTTVSYIHWYQQKSGTSPKRWLYDTSKIASGIPVRFSGSGSGTSYSLTISSMEAEDAATYYCQRWSTQPYTFGGGTKLEIKR , output reported OD 450 nm.
Response given: 2

Challenge: Annotate the binder Anti-cTnI 7B9 monoclonal antibody (recombinant, Sample 1) (antibody, mouse IgG1, kappa, V domains shown, Recombinant mouse antibody expressed in CHO cells; also called WT; Anti-cTnI 7B9 antibody) VH: QVQLQQSGTELAKPGASVKFSCKASDYTFSTYWMYWIKQRPGQGLEWIGYLNPSSGHTEYNQRFKDKATLTADKSSSTAYMQLNSLTSEDSAVYYCARKYFGPFAMDYWGQGTSVTVSS VL: EIFLTQSPAIMSASPGEKVTMTCSASTTVSYAHWYQQKSGTSPKRWLYDSSKIASGIPVRFSGSGSGTSYSLTISSMEAEDAATYYCQNWSTQPYTFGGGTKLEIKR with its measured OD 450 nm.
Response given: 1.7

Challenge: Report OD 450 nm, nothing else, for this binder: Mutation 1 (antibody, V domains shown, other CDR sites as WT) VH: QVQLQQSGTELAKPGASVKFSCKASGYTFSTYWMYWIKQRPGQGLEWIGYLNPSSGHTDYNQRFKDKATLTADKSSSTAYMQLNSLTSEDSAVYYCARKYFGPFGMDYWGQGTSVTVSS VL: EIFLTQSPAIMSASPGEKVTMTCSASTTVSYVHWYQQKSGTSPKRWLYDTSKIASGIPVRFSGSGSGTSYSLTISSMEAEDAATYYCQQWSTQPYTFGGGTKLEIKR
Response given: 2.36
